System: HCMV recombinant mutant virus
Experiment: microbe, parasite or virus in culture
Assay type: cell-based, human cytomegalovirus
Settings: Human betaherpesvirus 5, read-out: IC50 (ug/ml) HCMV
Measured IC50 accompanies every entry in the list below.
measured.endpoint: IC50 (µg/mL)

>>> endpoint_result("Cc1cc(NC(=S)NC(C)c2ccc(F)cc2)ccc1NC(=O)c1cc2ccccc2o1 (stereo not shown)")
6.3
>>> endpoint_result("CSc1ccc(NC(=S)Nc2ccc(NC(=O)c3ccccc3F)c(C)c2)cc1Cl")
6
>>> endpoint_result("CC(NC(=S)Nc1ccc(NC(=O)c2ccccc2F)cc1C(F)(F)F)c1ccc(F)cc1 (stereo not shown)")
5
>>> endpoint_result("CC(NC(=S)Nc1ccc(NC(=O)c2nccc3ccccc23)c(C#N)c1)c1ccc(F)cc1 (stereo not shown)")
4
>>> endpoint_result("CC(NC(=S)Nc1ccc(NC(=O)c2ccccc2F)c(-c2ccccc2)c1)c1ccc(F)cc1 (stereo not shown)")
8.1
>>> endpoint_result("CC(NC(=S)Nc1ccc(NC(=O)c2ccccc2F)c(Cl)c1)c1ccc(F)cc1 (stereo not shown)")
3.5
>>> endpoint_result("CC(NC(=S)Nc1ccc(NC(=O)c2cc3ccccc3o2)c(C#N)c1)c1ccc(F)cc1 (stereo not shown)")
2
>>> endpoint_result("CC(=O)Nc1ccc(NC(=S)Nc2ccc(NC(=O)c3ccc4ccccc4c3O)c(Cl)c2)cc1")
8
>>> endpoint_result("COc1cc(OC)c(NC(=S)Nc2ccc(NC(=O)c3c(F)cccc3F)cc2C)cc1Cl")
10
>>> endpoint_result("CC(NC(=S)Nc1cc(Br)c(NC(=O)c2ccccc2F)c(Br)c1)c1ccc(F)cc1 (stereo not shown)")
3.8

----------
System: HSV-1
Test: HSV antiviral (ELISA) assay in Vero cells
Assay type: cell-based, herpes simplex virus type 1
Settings: Human alphaherpesvirus 1; HSV-1 in Vero cells; read-out: IC50 (ug/ml) HSV
# note: boundary value 2 µg/mL maps to N; IC50 below it maps to Y

>>> group_label("Cc1cc(NC(=S)NC(C)c2ccc(F)cc2)ccc1NC(=O)c1cc2ccccc2o1 (stereo not shown)")
"N"
>>> group_label("Cc1cc(NC(=S)NC(C)c2ccc(Br)cc2)ccc1NC(=O)c1ccccc1F (stereo not shown)")
"N"
>>> group_label("CC(NC(=S)Nc1ccc(NC(=O)c2ccccc2F)c(OCC#N)c1)c1ccc(C#N)cc1 (stereo not shown)")
"N"
>>> group_label("CC(=O)Nc1ccc(NC(=S)Nc2ccc(NC(=O)c3ccc4ccccc4c3O)c(Cl)c2)cc1")
"N"
>>> group_label("COc1cc(OC)c(NC(=S)Nc2ccc(NC(=O)c3ccccc3F)cc2C)cc1Cl")
"Y"
>>> group_label("CC(NC(=S)Nc1ccc(NC(=O)c2ccccc2F)c(C#N)c1)c1cc2ccccc2o1 (stereo not shown)")
"N"
>>> group_label("CCCCOc1cc(NC(=S)NC(C)c2ccc(F)cc2)ccc1NC(=O)c1ccccc1F (stereo not shown)")
"N"
>>> group_label("COc1cc(OC)c(NC(=S)Nc2cc(C)c(NC(=O)c3ccccc3F)cc2Cl)cc1Cl")
"N"
>>> group_label("Cc1cc(NC(=S)NC(C)c2cc3ccccc3o2)ccc1NC(=O)c1ccccc1F (stereo not shown)")
"N"
>>> group_label("CSc1ccc(NC(=S)Nc2ccc(NC(=O)c3ccccc3F)c(C)c2)cc1Cl")
"Y"
>>> group_label("CC(NC(=S)Nc1ccc(NC(=O)c2cc3ccccc3o2)c(C(F)(F)F)c1)c1ccc(F)cc1 (stereo not shown)")
"N"
>>> group_label("COc1cc(OC)c(NC(=S)Nc2ccc(NC(=O)c3ccccc3F)cc2C(F)(F)F)cc1Cl")
"Y"
>>> group_label("Cc1cc(NC(=S)NC(C)c2ccc(F)cc2)ccc1NC(=O)c1nccc2ccccc12 (stereo not shown)")
"N"
>>> group_label("CC(NC(=S)Nc1ccc(NC(=O)c2ccccc2F)c(C(=O)c2ccccc2)c1)c1ccc(F)cc1 (stereo not shown)")
"N"
>>> group_label("CC(NC(=S)Nc1ccc(NC(=O)c2ccccc2F)c(C(F)(F)F)c1)c1ccc(F)cc1 (stereo not shown)")
"N"

----------
Test system: HCMV recombinant mutant virus
Assay: microbe, parasite or virus in culture
Assay type: cell-based, human cytomegalovirus
Settings: Human betaherpesvirus 5, read-out: IC50 (ug/ml) HCMV
Reported IC50 is given for each of the following compounds.
measured.endpoint: IC50

>>> endpoint_result("COc1cc(OC)c(NC(=S)Nc2ccc(NC(=O)c3ccccc3F)c(OC)c2)cc1Cl")
"> 10 µg/mL"
>>> endpoint_result("Cc1cc(NC(=O)c2cc(F)c(F)cc2F)ccc1NC(=S)NC(C)c1ccc(F)cc1 (stereo not shown)")
"> 10 µg/mL"
>>> endpoint_result("COc1cc(OC)c(NC(=S)Nc2ccc(NC(=O)c3ccccc3F)cc2C(F)(F)F)cc1Cl")
"> 10 µg/mL"
>>> endpoint_result("Cc1cc(NC(=O)c2ccccc2F)ccc1NC(=O)N[C@H](C)c1ccc(F)cc1")
"> 10 µg/mL"
>>> endpoint_result("COc1cc(OC)c(NC(=S)Nc2ccc(NC(=O)c3ccccc3F)c(C(=O)Nc3ccccc3)c2)cc1Cl")
"> 10 µg/mL"
>>> endpoint_result("COc1cc(OC)c(NC(=S)Nc2ccc(NC(=O)c3ccccc3F)cc2C#N)cc1Cl")
"> 10 µg/mL"
>>> endpoint_result("COc1cc(OC)c(NC(=S)Nc2ccc(NC(=O)c3ccccc3F)c(C)c2)cc1Cl")
"> 10 µg/mL"
>>> endpoint_result("COc1cc(OC)c(NC(=S)Nc2c(Cl)cc(NC(=O)c3ccccc3F)cc2Cl)cc1Cl")
"> 10 µg/mL"
>>> endpoint_result("COc1cc(OC)c(NC(=S)Nc2cc(C)c(NC(=O)c3ccccc3F)cc2Cl)cc1Cl")
"> 10 µg/mL"
>>> endpoint_result("COc1cc(OC)c(NC(=S)Nc2cc(OC)c(NC(=O)c3ccccc3F)cc2OC)cc1Cl")
"> 10 µg/mL"
>>> endpoint_result("CC(NC(=S)Nc1ccc(NC(=O)c2cc3ccccc3cn2)c(C(F)(F)F)c1)c1ccc(F)cc1 (stereo not shown)")
"> 10 µg/mL"
>>> endpoint_result("CC(=O)Nc1ccc(NC(=S)Nc2ccc(NC(=O)c3ccccc3)c(Cl)c2)cc1")
"> 10 µg/mL"
>>> endpoint_result("CC(NC(=S)Nc1ccc(NC(=O)c2ccccc2F)c(OCc2ccccc2)c1)c1ccc(C#N)cc1 (stereo not shown)")
"> 10 µg/mL"
>>> endpoint_result("CC(NC(=S)Nc1ccc(NC(=O)c2ccccc2F)c(OCc2ccccc2)c1)c1ccc(F)cc1 (stereo not shown)")
"> 10 µg/mL"
>>> endpoint_result("Cc1cc(NC(=S)NC(C)c2ccc(Br)cc2)ccc1NC(=O)c1ccccc1F (stereo not shown)")
"2.8 µg/mL"
>>> endpoint_result("Cc1cc(NC(=S)NC(C)c2ccc(C#N)cc2)ccc1NC(=O)c1ccccc1F (stereo not shown)")
"6.1 µg/mL"
>>> endpoint_result("C[C@H](NC(=S)Nc1ccc(NC(=O)c2cc3ccccc3cn2)c(C(F)(F)F)c1)c1ccc(Br)cc1")
"5 µg/mL"
>>> endpoint_result("COc1cc(NC(=S)NC(C)c2ccc(F)cc2)c(OC)cc1NC(=O)c1ccccc1F (stereo not shown)")
"> 10 µg/mL"
>>> endpoint_result("COc1cc(OC)c(NC(=S)Nc2ccc(NC(=O)c3ccccc3F)cc2C)cc1Cl")
"> 10 µg/mL"
>>> endpoint_result("COc1cc(C)c(Cl)cc1NC(=S)Nc1ccc(NC(=O)c2ccccc2F)c(C)c1")
"> 10 µg/mL"
>>> endpoint_result("CC(NC(=S)Nc1ccc(NC(=O)c2cc3ccccc3o2)c(C(F)(F)F)c1)c1ccc(F)cc1 (stereo not shown)")
"3.3 µg/mL"
>>> endpoint_result("COc1cc(NC(=S)NC(C)c2ccc(F)cc2)ccc1NC(=O)c1ccccc1F (stereo not shown)")
"4.5 µg/mL"
